Reported self-splicing fitness (ln) values follow for various sequences
Assay Remarks: self-splicing fitness, log relative to wild type (ln ratio); higher = more splicing; Tetrahymena group I intron in knt gene, E. coli kanamycin selection, DiMSum; sequences stand for … in CUCUCU…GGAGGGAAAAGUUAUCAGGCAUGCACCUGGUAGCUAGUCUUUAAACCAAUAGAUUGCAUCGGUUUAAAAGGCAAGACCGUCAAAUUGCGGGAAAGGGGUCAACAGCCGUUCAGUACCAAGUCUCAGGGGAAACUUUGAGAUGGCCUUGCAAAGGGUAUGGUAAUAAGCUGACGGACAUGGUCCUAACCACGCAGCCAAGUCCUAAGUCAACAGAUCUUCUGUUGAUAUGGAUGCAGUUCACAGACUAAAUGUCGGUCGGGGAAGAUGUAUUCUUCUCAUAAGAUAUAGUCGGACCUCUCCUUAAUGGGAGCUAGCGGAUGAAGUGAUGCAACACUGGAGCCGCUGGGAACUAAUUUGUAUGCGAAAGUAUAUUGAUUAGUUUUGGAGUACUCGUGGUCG;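 also: selection with 25 µg/mL kanamycin versus none on LB agar overnight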
Measurement Parameters: 37 °C
Form: value (number only, do not type unit).

# Sequence Chain, Recorded Metric, Numeric Readout
data = [
    ("UGUCAGCAAUAUUACGCGAG", "self-splicing fitness (ln)", -0.991),
]

State the recorded self-splicing fitness (ln) for this entry: GUGUAGCAAUAUUACGCAAC -0.636

State the recorded self-splicing fitness (ln) for this entry: GCGUAGCAAUAUUACGCACA -1.71

State the recorded self-splicing fitness (ln) for this entry: AACGAGCAAUAUUACGGUGU -1.81

State the recorded self-splicing fitness (ln) for this entry: GUUAAGCAAUAUUACGACGU 0.426

###

Assay Remarks: self-splicing fitness, log relative to wild type (ln ratio); higher = more splicing; Tetrahymena group I intron in knt gene, E. coli kanamycin selection, DiMSum; sequences stand for … in CUCUCU…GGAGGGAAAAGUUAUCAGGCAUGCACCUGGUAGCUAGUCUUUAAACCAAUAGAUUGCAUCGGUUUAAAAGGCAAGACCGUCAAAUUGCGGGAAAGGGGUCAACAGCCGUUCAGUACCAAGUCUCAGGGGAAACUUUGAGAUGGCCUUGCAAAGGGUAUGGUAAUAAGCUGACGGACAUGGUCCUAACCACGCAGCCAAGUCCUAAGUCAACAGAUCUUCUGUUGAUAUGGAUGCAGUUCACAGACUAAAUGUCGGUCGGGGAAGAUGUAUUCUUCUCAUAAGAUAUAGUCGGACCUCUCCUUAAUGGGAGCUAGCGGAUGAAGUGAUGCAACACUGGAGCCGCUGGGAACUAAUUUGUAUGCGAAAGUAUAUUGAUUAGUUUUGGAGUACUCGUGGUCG
Measurement Parameters: 30 °C
Kindly return TRUE if reported self-splicing fitness (ln) is no lower than -2; return FALSE if it is lower.

// known answers, use as guide
# Sequence Chain, Label
rows = [
    ("UGUUAGCAAUAUUACGUGAC", "FALSE"),
    ("GGGUAGCAAUAUUACGUCCC", "TRUE"),
    ("CCGGAGCAAUAUUACGUCGU", "FALSE"),
]

Identify whether the reported self-splicing fitness (ln) of the following sequence is -2 or greater: UUCGAGCAAUAUUACGACAG FALSE

Identify whether the reported self-splicing fitness (ln) of the following sequence is -2 or greater: GGCGAGCAAUAUUACGUAGU TRUE

###

Assay Remarks: self-splicing fitness, log relative to wild type (ln ratio); higher = more splicing; Tetrahymena group I intron in knt gene, E. coli kanamycin selection, DiMSum; sequences stand for … in CUCUCU…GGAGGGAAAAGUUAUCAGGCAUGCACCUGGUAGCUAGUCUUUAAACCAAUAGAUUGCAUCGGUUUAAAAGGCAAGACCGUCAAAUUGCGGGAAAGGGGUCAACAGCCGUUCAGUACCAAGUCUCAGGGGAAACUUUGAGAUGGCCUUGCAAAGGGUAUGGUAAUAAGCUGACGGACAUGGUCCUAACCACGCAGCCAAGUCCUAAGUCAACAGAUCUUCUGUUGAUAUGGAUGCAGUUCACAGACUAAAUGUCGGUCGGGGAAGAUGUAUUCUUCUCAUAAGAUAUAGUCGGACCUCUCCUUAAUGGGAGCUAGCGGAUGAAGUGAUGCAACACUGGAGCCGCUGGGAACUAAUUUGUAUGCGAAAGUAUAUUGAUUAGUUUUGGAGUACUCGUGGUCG
Measurement Parameters: 37 °C
Classes by self-splicing fitness (ln): interval 1: < -2; interval 2: ≥ -2 and < -1; interval 3: ≥ -1

// known answers, use as guide
# Sequence Chain, Label
measured = [
    ("AAACAGCAAUAUUACGAGCC", "interval 2"),
    ("ACUCAGCAAUAUUACGAGGC", "interval 1"),
    ("GCCAAGCAAUAUUACGGGUU", "interval 2"),
]

Assign a bin to AGCAAGCAAUAUUACGGGAU interval 2

Assign a bin to GUACAGCAAUAUUACGCAGG interval 2

###

Reported self-splicing fitness (ln) values follow for various sequences
Assay Remarks: self-splicing fitness, log relative to wild type (ln ratio); higher = more splicing; Tetrahymena group I intron in knt gene, E. coli kanamycin selection, DiMSum; sequences stand for … in CUCUCU…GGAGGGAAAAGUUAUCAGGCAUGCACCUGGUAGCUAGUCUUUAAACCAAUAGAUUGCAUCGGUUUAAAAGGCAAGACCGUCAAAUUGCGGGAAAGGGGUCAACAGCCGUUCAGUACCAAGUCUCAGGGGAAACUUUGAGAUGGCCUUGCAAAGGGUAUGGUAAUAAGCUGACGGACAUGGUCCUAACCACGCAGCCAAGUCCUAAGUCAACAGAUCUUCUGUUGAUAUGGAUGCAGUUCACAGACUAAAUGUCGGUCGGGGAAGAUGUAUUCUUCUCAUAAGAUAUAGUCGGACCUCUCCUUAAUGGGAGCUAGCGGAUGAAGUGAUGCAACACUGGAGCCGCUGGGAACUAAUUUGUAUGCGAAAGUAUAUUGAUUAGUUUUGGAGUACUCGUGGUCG
Measurement Parameters: 30 °C
Form: value (number only, do not type unit).

Please review the following examples before continuing.
# Sequence Chain, self-splicing fitness (ln)
rows = [
    ("GCUCAGCAAUAUUACGAAGA", -0.583),
    ("GACCAGCAAUAUUACGAGAA", -1.67),
]

Now for a further sequence.
State the recorded self-splicing fitness (ln) for this entry: GUUAAGCAAUAUUACGACUU 0.183

###

Assay Remarks: self-splicing fitness, log relative to wild type (ln ratio); higher = more splicing; Tetrahymena group I intron in knt gene, E. coli kanamycin selection, DiMSum; sequences stand for … in CUCUCU…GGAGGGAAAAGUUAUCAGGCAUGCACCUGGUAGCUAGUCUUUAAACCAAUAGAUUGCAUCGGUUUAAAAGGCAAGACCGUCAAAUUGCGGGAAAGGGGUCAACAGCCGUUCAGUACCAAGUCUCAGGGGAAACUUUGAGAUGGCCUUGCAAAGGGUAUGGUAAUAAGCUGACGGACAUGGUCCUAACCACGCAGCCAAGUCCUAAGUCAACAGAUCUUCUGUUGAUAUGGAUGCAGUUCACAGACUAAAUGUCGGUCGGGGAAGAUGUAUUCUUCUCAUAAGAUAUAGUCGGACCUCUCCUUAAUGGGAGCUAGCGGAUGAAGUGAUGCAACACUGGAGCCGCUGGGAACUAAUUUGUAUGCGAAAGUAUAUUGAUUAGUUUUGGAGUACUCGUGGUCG
Measurement Parameters: 30 °C
Classes by self-splicing fitness (ln): band A: < -3; band B: ≥ -3 and < -1; band C: ≥ -1

# Sequence Chain, Label
data = [
    ("GGAAAGCAAUAUUACGCCUC", "band B"),
    ("GUGUAGCAAUAUUACGAAAA", "band B"),
    ("UGGAAGCAAUAUUACGGCUG", "band C"),
    ("GUGGAGCAAUAUUACGGCGU", "band B"),
    ("UGGCAGCAAUAUUACGACUA", "band C"),
    ("UUGUAGCAAUAUUACGGUAA", "band B"),
    ("GAUAAGCAAUAUUACGAAUU", "band A"),
]

Here is the next item to consider.
Assign a bin to CUUCAGCAAUAUUACGCACC band A

###

Assay Remarks: self-splicing fitness, log relative to wild type (ln ratio); higher = more splicing; Tetrahymena group I intron in knt gene, E. coli kanamycin selection, DiMSum; sequences stand for … in CUCUCU…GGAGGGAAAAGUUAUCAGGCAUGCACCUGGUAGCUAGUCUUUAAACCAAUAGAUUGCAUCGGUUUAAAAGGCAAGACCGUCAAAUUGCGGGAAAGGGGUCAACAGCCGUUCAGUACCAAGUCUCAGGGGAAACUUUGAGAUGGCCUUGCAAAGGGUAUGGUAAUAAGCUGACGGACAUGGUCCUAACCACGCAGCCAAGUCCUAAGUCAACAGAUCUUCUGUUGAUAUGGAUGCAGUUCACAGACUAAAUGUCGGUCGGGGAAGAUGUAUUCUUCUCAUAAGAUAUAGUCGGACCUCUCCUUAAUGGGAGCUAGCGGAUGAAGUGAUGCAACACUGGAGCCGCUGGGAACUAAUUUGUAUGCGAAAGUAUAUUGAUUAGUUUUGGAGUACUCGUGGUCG
Measurement Parameters: 30 °C
Reported self-splicing fitness (ln) values follow for various sequences

Please review the following examples before continuing.
# Sequence Chain, self-splicing fitness (ln)
measured = [
    ("GGCAAGCAAUAUUACGUAUG", -2),
    ("CGUAAGCAAUAUUACGGCUA", -2.35),
]

Now for a further sequence.
State the recorded self-splicing fitness (ln) for this entry: UAUAAGCAAUAUUACGUUAA -2.59
